Molecular target: gelatinase A (Homo sapiens, UniProt P08253)
Construct: endogenous in cells
Sequence (P08253 110-660): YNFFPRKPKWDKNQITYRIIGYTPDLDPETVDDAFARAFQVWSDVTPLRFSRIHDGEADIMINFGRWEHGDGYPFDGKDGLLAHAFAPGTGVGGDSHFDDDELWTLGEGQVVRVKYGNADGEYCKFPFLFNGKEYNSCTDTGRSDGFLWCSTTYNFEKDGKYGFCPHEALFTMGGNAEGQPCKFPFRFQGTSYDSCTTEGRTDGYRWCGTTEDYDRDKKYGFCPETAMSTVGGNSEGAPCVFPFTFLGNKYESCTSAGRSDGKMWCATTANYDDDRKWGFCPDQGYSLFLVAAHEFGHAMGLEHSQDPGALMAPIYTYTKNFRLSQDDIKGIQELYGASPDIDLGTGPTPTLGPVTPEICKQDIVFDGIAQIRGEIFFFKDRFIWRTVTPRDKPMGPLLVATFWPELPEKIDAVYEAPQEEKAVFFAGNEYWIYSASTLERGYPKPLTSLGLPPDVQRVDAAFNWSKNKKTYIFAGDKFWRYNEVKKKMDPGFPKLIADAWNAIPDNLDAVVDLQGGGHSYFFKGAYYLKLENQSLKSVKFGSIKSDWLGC
Assay: Inhibitory activity against gelatinase A
Conditions: progelatinase A from human normal skin dermal fibroblasts (HNDF), activated with APMA; substrate MOCAc-Pro-Leu-Gly-A2pr(Dnp)-Ala-Arg-NH2; 37 °C, 20 minutes; fluorescence Ex 328 nm, Em 393 nm
pIC50: −log10 of the molar value.
value-type: pIC50

Cc1ccc(C#Cc2ccc(S(=O)(=O)N[C@H](C)C(=O)NO)cc2)cc1 ... 9.15
C#Cc1ccc(S(=O)(=O)N[C@H](CCC(=O)NCCc2ccccc2)C(=O)NO)cc1 ... 9.10

(A) CCCC#Cc1ccc(S(=O)(=O)N(C)[C@H](C)C(=O)NO)cc1
(B) CCCC#Cc1ccc(S(=O)(=O)N[C@H](C)C(=O)NO)cc1
q: Between A and B , whose recorded pIC50 is greater? Output the label that corresponds to your choice.
a: A

The reported numbers originate from patent EP0915086A1.
